The measurements presented in this section are drawn from patent US7022699B2.

TESTED_ON: human vasopressin V1a receptor subtype (Homo sapiens)
Construct: host or cells: CHO cells, stably transfected (pZeoSV vector for the Thibonnier cells); membranes
Sequence (P37288 whole entry): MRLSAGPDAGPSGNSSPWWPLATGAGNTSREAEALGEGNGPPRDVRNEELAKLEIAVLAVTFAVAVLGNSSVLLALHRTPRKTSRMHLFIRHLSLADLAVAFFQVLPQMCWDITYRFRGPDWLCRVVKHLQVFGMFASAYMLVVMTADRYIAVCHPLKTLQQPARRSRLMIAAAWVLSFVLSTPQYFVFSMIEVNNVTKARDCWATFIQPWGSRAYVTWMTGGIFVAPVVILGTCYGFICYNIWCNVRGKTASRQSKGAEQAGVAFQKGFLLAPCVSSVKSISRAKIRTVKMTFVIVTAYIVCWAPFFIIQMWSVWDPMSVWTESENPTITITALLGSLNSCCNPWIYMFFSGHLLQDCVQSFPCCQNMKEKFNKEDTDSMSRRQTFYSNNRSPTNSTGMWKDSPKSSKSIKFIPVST
ASSAY_INFO: Vasopressin binding in CHO cell membranes expressing human vasopressin V1a subtype receptors ([3H]Manning ligand)
ASSAY_CONTEXT: 100 nM, values without parentheses
Description: Vasopressin Binding in Chinese Hamster Ovary Cell Membranes Expressing Human Vasopressin V1a Subtype Receptors Chinese hamster ovary cells (CHO cells) stably transfected with the human vasopressin V1a subtype receptors were either obtained from Biosignal Inc., 1744 rue Williams, Montreal, Quebec, Canada or obtained from M. Thibonnier, Case Western Reserve University School of Medicine, Cleveland, Ohio. […]
RECORDED_ENDPOINT: inhibition at 0.1 µM (%)
Please give a number only; it is taken to be in %.

[ask] Bench note: what inhibition at 0.1 µM did CO[C@@H]1CCCC(c2ccc(C(=O)N3Cc4cccn4Cc4ccccc43)cc2C)=C1C show?
[reply] 85

[ask] Subsequent entry: CC1(C)C2CC=C(c3ccc(C(=O)N4Cc5cccn5Cc5ccccc54)cc3)C1C2 (stereo not shown)
[reply] 13

[ask] Subsequent entry: COc1cc(C2=CCCc3ccccc32)c(Cl)cc1C(=O)N1Cc2cccn2Cc2ccccc21
[reply] -9

[ask] Subsequent entry: CC1=C(c2ccc(C(=O)N3Cc4cccn4Cc4ccccc43)cc2C)CCCC1O (racemic)
[reply] 0

---

TESTED_ON: human oxytocin receptor (Homo sapiens)
Construct: host or cells: CHO cells, stably transfected (pcDNA3.1 vector); membranes
Sequence (P30559 1-389): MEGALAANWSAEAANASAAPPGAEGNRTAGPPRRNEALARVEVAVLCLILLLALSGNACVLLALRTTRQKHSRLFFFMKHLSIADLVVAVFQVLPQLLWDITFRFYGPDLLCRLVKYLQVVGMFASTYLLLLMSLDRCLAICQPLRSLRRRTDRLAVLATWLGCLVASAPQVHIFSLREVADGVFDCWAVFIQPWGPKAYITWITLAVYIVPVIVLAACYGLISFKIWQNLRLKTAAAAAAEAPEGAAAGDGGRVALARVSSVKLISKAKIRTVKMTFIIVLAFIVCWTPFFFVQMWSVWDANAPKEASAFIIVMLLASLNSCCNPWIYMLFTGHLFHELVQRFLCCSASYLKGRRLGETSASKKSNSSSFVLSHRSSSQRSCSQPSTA
ASSAY_INFO: Oxytocin binding in CHO cell membranes expressing human oxytocin receptors ([3H]oxytocin)
ASSAY_CONTEXT: 100 nM, values without parentheses, read-out: OT % inhibition @ 100 nM
Could you please report measured inhibition at 0.1 µM for the items listed next?
Please give a number only; it is taken to be in %.

[ask] Bench note: what inhibition at 0.1 µM did CC1=C(c2ccc(C(=O)N3Cc4cccn4Cc4ccccc43)cc2)CCCC1O (centres unmarked) show?
[reply] 96

[ask] Subsequent entry: Cc1cc(C(=O)N2Cc3cccn3Cc3ccccc32)ccc1C1=CCCCC1C(C)(C)C (centres unmarked)
[reply] 20

[ask] Subsequent entry: CC1(C)CCCC=C1c1ccc(C(=O)N2Cc3cccn3Cc3ccccc32)c(Cl)c1
[reply] 74

[ask] Subsequent entry: CC1=C(c2ccc(C(=O)N3Cc4cccn4Cc4ccccc43)cc2)CCCC1=O
[reply] 80

[ask] Subsequent entry: CC1=C(c2ccc(C(=O)N3Cc4cccn4Cc4ccccc43)cc2C)CCCC1N (centres unmarked)
[reply] 67

[ask] Subsequent entry: O=C(c1ccc(C2=CC(O)CCC2)cc1)N1Cc2cccn2Cc2ccccc21 (centres unmarked)
[reply] 39

[ask] Subsequent entry: CC1(C)C=C(c2ccc(C(=O)N3Cc4cccn4Cc4ccccc43)cc2)CC(C)(C)C1
[reply] 7

[ask] Subsequent entry: CC1=C(c2ccc(C(=O)N3Cc4cccn4Cc4ccccc43)cc2C)CCC[C@H]1O [Example 6]
[reply] 95

[ask] Subsequent entry: O=C(c1ccc(C2=CCCCC2)cc1Cl)N1Cc2cccn2Cc2ccccc21
[reply] 95

[ask] Subsequent entry: CO[C@@H]1CCCC(c2ccc(C(=O)N3Cc4cccn4Cc4ccccc43)cc2C)=C1C
[reply] 96

[ask] Subsequent entry: CC1=C(c2ccc(C(=O)N3Cc4cccn4Cc4ccccc43)cc2)C(C)CCC1 (centres unmarked)
[reply] 47

[ask] Subsequent entry: CC1=C(c2ccc(C(=O)N3Cc4cccn4Cc4ccccc43)cc2C)C(C)CCC1 (centres unmarked)
[reply] 56

[ask] Subsequent entry: O=C(c1ccc(C2=CCCc3ccccc32)cc1Cl)N1Cc2cccn2Cc2ccccc21
[reply] 65

[ask] Subsequent entry: CC1=C(c2ccc(C(=O)N3Cc4cccn4Cc4ccccc43)cc2C)CCC[C@H]1O (single isomer, unassigned) [Example 41]
[reply] 90

[ask] Subsequent entry: Cc1cc(C(=O)N2Cc3cccn3Cc3ccccc32)ccc1C1=CC(C)(C)CC(C)(C)C1
[reply] 30

[ask] Subsequent entry: CC1=C(c2ccc(C(=O)N3Cc4cccn4Cc4ccccc43)cc2C)CCCC1=O
[reply] 46

[ask] Subsequent entry: Cc1cc(C(=O)N2Cc3cccn3Cc3ccccc32)ccc1C1=CCCCC1
[reply] 96
